system: HCC-2998 colon; assay: NCI-60 one-dose screen, 48 h; conditions: 10 µM unless noted
This is part of a sample that, as a whole, favours compounds with a hit. Of some 83,000 tested, about 20% had one in any assay. The source made the active and inactive calls. The calls were made as follows: active = growth percent below 10; inactive = the rest.
Mark one answer only. Choices: active, inactive

Cc1ncc(C(=O)Nc2ccc(CN3CCN(C)CC3)c(C(F)(F)F)c2)cc1C#Cc1c(N)ncc2ccc(F)cc12 : inactive
COc1cc2oc(-c3ccc(NC(=O)c4ccccc4)cc3)cc(=O)c2c(OC)c1OC : inactive
O=c1[nH]c(=S)[nH]c(O)c1/C=C1\C=Nc2ccccc21 : inactive
CCOC(=O)CSSCC(=O)OCC : inactive
CC1(c2ccc(Br)cc2)NC(=O)NC1=O (stereo not given) : inactive

### Prompt Test call for this compound, please: `COc1ccc(Nc2c3ccccc3nc3ccccc23)cc1`
### Response inactive

### Prompt Test call for this compound, please: `C#CCCCCCCC[C@@H]1OC(=O)[C@H]([C@@H](C)CC)NC(=O)[C@@H]([C@@H](C)CC)NC(=O)CC(=O)[C@@H]1C`
### Response inactive

### Prompt Test call for this compound, please: `Oc1ccccc1/C=N/N=C\c1ccccc1Cl`
### Response inactive

### Prompt Test call for this compound, please: C/C=C(/C)C(=O)OC1C=C(CO)C(=O)C(OC(=O)C2(C)OC2C)C1C(C)C (stereo not given)
### Response active

### Prompt Test call for this compound, please: `CCn1cnc(C[C@H](NC(=O)[C@@H](NC(=O)Nc2cc(C(F)(F)F)cc(C(F)(F)F)c2)C(C)(C)C)C(=O)OC)c1`
### Response active

----------
tested on: EKVX NSCLC; assay: NCI-60 one-dose screen, 48 h (100 = growth as untreated, 0 = no growth, -100 = all killed); conditions: 10 µM
About 83,000 compounds went through this panel and 20% of them were active in at least one assay; those are over-represented in the sample as a whole.
Field: label. Allowed values: TRUE (growth < 90%) or FALSE (growth >= 90%).

CCCOC(=O)c1c(C)n(C)c2scc[n+]12 : TRUE
CCC(C)(C)c1ccc(OCCCCCCN2CCNCC2)cc1 : FALSE
CCCCCCCCc1ccc(CCC(N)(CO)CO)cc1 : TRUE

### Prompt growth strictly < 90% for this compound? `C/C(CCC(=O)O)=N/Nc1ccc([N+](=O)[O-])cc1`
### Response TRUE

### Prompt growth strictly < 90% for this compound? CCS(=O)(=O)N[C@@H]1O[C@H](COC(C)=O)C(OC(C)=O)[C@H](OC(C)=O)C1OC(C)=O (stereo partly specified)
### Response FALSE

### Prompt growth strictly < 90% for this compound? `COc1ccc2nc3cc(Cl)ccc3c(NCCCNC(C)=O)c2c1`
### Response TRUE

### Prompt growth strictly < 90% for this compound? `CCCC(CCC)Oc1ccc(CCCC2=C(O)c3ccccc3C(=O)C2=O)cc1`
### Response TRUE

### Prompt growth strictly < 90% for this compound? `O=C1C(=O)c2ccccc2C(O)=C1CCCc1ccc(C2CCCC2)cc1`
### Response TRUE

### Prompt growth strictly < 90% for this compound? CCCCN(CCCC)CC(O)CN(CC)CC (stereo unspecified)
### Response FALSE

### Prompt growth strictly < 90% for this compound? `COc1cc(-c2nn(-c3ccc(NC(=O)c4cc(Cl)cc(Cl)c4)cc3)cc2-c2ccncc2)ccc1Cl`
### Response TRUE

----------
test system: SNB-19 CNS; assay: NCI-60 one-dose screen, 48 h (100 = growth as untreated, 0 = no growth, -100 = all killed); conditions: 10 µM unless noted
The panel holds about 83,000 compounds, 20% with a hit somewhere; the sample as a whole holds those more often.
value_type: growth (%)
Numeric only. Scale: %

Here's what some known entries look like.
Nc1cc(N)c2nc(NCCc3ccc(Cl)c(Cl)c3)cnc2c1 : 66
CN(C)CCOC(=O)C(C)(C)C : 99.4
O=C1NCCN1/N=C/c1c(Cl)nc2n1CCS2 : 108
CC(C)(C)C(=O)CCCCCCCC/C=C/CCCC(O)c1ccco1 (stereo unspecified) : 109
O=C(Nc1ccc(Cl)cn1)C1(c2ccccc2)CCCCC1 : 106
CCCCCCCCCCCCOC(=N)N(C)C : 96.1
CN1CCN(Cc2ccc(NC(=O)c3ccc(C#Cc4c(N)ncc5ccc(F)cc45)cc3)cc2C(F)(F)F)CC1 : -91.8
COCC(=O)NNc1[nH]c(-c2ccc(OC)cc2)cc1C#N : 114

Note to self: growth recorded for `CCCCCCCCCCCCCCCCNC(=O)Nc1ccc(C)c(NC(=O)NCCCCCCCCCCCCCCCC)c1` was 96.9

Note to self: growth recorded for O=P(OCCCl)(OCCCl)C(O)c1ccccc1Cl (stereo unspecified) was 107

Note to self: growth recorded for `COC(=O)c1ccc2[nH]c(O)c(C(=Nc3ccc(N(C)C(=O)CN4CCN(C)CC4)cc3)c3cccc(OC)c3)c2c1` was 12.7

----------
tested on: MALME-3M melanoma; assay: NCI-60 one-dose screen, 48 h (100 = growth as untreated, 0 = no growth, -100 = all killed); details: 10 µM unless noted
The panel holds about 83,000 compounds, 20% with a hit somewhere; the sample as a whole holds those more often.
Listed compounds paired with reported growth
Numeric only. Scale: %

COc1cc(N)c2nccc(C)c2c1OC : 95.8

Note to self: growth recorded for COc1cc(NC(C)CCCN)c2nc(C)ccc2c1OC (stereo not given) was 69.9

Note to self: growth recorded for COC1NC(Cl)=C(C#N)C(C#N)(C#N)C1(C)C (stereo not given) was 146

Note to self: growth recorded for `Cc1nn(-c2ccccc2)c(N)c1N=C1NC(=O)/C(=C/c2ccc(Cl)cc2)S1` was 87.4

----------
test system: SNB-75 CNS; test: NCI-60 one-dose screen, 48 h; settings: 10 µM unless noted
The panel holds about 83,000 compounds, 20% with a hit somewhere; the sample as a whole holds those more often. Activity calls are given as the source filed them. How the source made its calls: active means growth percent below 10; inactive means the rest.
Mark one answer only. Choices: yes (1) for active, no (0) for inactive

c1ccc2[nH]c(-c3ccc(OCCCCCOc4ccc(-c5nc6ccccc6[nH]5)cc4)cc3)nc2c1 : yes (1)

### Prompt Test call for this compound, please: `Cc1ccc2c(c1)C(=O)CCS2`
### Response no (0)

### Prompt Test call for this compound, please: `N=c1c2c(=O)n3c(nc2nc2sc4ccc(Cl)cc4n12)-c1ccccc1Sc1ccccc1-3`
### Response no (0)

----------
Listed molecules paired with reported growth
test system: HOP-62 NSCLC; assay: NCI-60 one-dose screen, 48 h (100 = growth as untreated, 0 = no growth, -100 = all killed); conditions: 10 µM unless noted
About 83,000 compounds went through this panel and 20% of them were active in at least one assay; those are over-represented in the sample as a whole.
Numeric only. Scale: %

Here's what some known entries look like.
COc1cc(OC)c(/C=C/c2ccc3ccccc3[n+]2C)c(OC)c1 : 28.4
CC(=O)N1CCN(CCNC(=O)n2cc(-c3ccncc3)c(-c3cc(O)cc(Cl)c3)n2)CC1 : 94.2
Cc1ccc(C(=O)Nc2ccc(CN3CCN(C)CC3)c(C(F)(F)F)c2)cc1C#Cc1cnc(N)c2ccc(F)cc12 : -68.8

Note to self: growth recorded for `CC(C)(C)c1cc(C[P+](c2ccc(Cl)cc2)(c2ccc(Cl)cc2)c2ccc(Cl)cc2)cc(C(C)(C)C)c1O` was 98.9

Note to self: growth recorded for `O=C(O)COc1ccc([N+](=O)[O-])cc1Cl` was 90.5

Note to self: growth recorded for CC([C@H]1CC=C2C3CCC4=C[C@@H](N(C)C)CC[C@]4(C)C3CC[C@@]21C)N(C)C (stereo partly specified) was -19.4

----------
system: CCRF-CEM leukemia; assay: NCI-60 one-dose screen, 48 h; details: 10 µM
Compounds without any hit were thinned out: in the full panel of roughly 83,000, 20% have a hit. Calls of active or inactive are those of the source. How the source made its calls: active means growth percent below 10; inactive means the rest.
Mark one answer only. Choices: active, inactive

Completed entries (count: 3):
C/C=C/C/C=C/[C@H](C)C[C@H](O)[C@@H]1C[C@@H]2O[C@H]2/C=C/[C@@H]2OC(C)(C)O[C@H]2/C=C/C[C@H](C)CC(=O)O1 : inactive
CC1=C(C)C[C@]2(C(=O)O[C@H]3CCCC[C@@H]32)[S@](=O)C1 : inactive
CC1Cc2cc(F)ccc2-n2cccc21 (stereo not given) : inactive

Now consider a different molecule.
### Prompt Test call for this molecule, please: `CC(C)OC(=O)c1ccc2n1CCCc1cnc(Nc3ccccc3)nc1-2`
### Response inactive

----------
tested on: NCI-H322M lung; test: NCI-60 one-dose screen, 48 h; details: 10 µM unless noted
The panel holds about 83,000 compounds, 20% with a hit somewhere; the sample as a whole holds those more often. Active and inactive are the calls of the source. The calls were made as follows: active = growth percent below 10; inactive = the rest.
Mark one answer only. Choices: active, inactive

Completed entries (count: 5):
CCNc1nnc(COc2ccc(CNC(=O)CCCC/C=C/C(C)C)cc2OC)o1 : inactive
CC(O)c1cc[cH-]c1.[Fe+2].c1cc[cH-]c1 (stereo unspecified) : inactive
O=C(Nn1cnc2ccccc21)N1CCCC1 : inactive
COc1ccc2c(c1)/C(=C/c1c(-c3cc(OC)c(OC)c(OC)c3)nc3sccn13)C(=O)N2 : inactive
O=C1C(Cl)=C(Nc2ccc(Nc3ccccc3)c(NC3=C(Cl)C(=O)c4ccccc4C3=O)c2)C(=O)c2ccccc21 : inactive

Now consider a different compound.
### Prompt Test call for this compound, please: `C/C(=N\Nc1cccc(Cl)n1)c1ccccn1`
### Response inactive

FYI, the data here is from PubChem BioAssay (NCI).
